tested on: HIV-1RoJo/PBMC; assay: Anti-HIV efficacy in fresh human PBMCs, strain RoJo; type: cell-based; settings: Human immunodeficiency virus 1, PBMC, read-out: IC50 (concentration inhibiting virus replication by 50%)
value.type: pIC50
Numbers only, as −log10 of the molar value.

Task: Report pIC50 for Cc1nc(N)sc1-c1ccnc(Nc2cccc([N+](=O)[O-])c2)n1 [Compound 105]
Result: 7.17

---

Hi there, I'd appreciate the recorded pIC50 for every entry that follows.
tested on: CaMKII; format: biochemical; conditions: Table 2
pIC50: −log10 of the molar value.

Example compounds with recorded pIC50:
Cc1nc(N)sc1-c1ccnc(Nc2cccc(O)c2)n1 [Compound 116] : 5.11
Cc1nc(C)c(-c2ccnc(Nc3cccc(C#N)c3)n2)s1 [Compound 36] : < 4.30
Cc1nc(C)c(-c2ccnc(Nc3cccc([N+](=O)[O-])c3)n2)s1 [Compound 5] : < 4.30
Cc1nc(C)c(-c2ccnc(Nc3ccc(C(F)(F)F)cc3)n2)s1 [Compound 15] : < 4.30

Task: Recall and state the measured pIC50 for Cc1nc(N)sc1-c1ccnc(Nc2cccc([N+](=O)[O-])c2)n1 [Compound 105] .
Result: < 4.00
